Target: T1, human CD137-Fc recombinant protein (Acro Biosystems 41B-H5258) (human, UniProt Q07011 24-186)
T1 construct: Bought protein; The Octet paragraph gives no catalogue number for its human CD137-Fc; also called hCD137-Fc; CD137-Fc tagged protein
Assay: BLI (Octet RED384), CD137-Fc on Protein G sensor, 1:1 model
quantity.kind: koff (s⁻¹)

>  <binder>
003BB172-E01-2 (VHH, Human VH single domain antibody, monovalent) VHH: EVQLVESGGGLVQPGGSLRLSCAASGFTFSNYGMHWVRQAPGKRLEWVAVISNDGNTKTYADSVKGRFTISRDNSKNTLYLQMTSLRTEDTAVYYCAQDETTTVTASYYFDYWGQGTLVTVSS

>  <koff (s⁻¹)>
0.00137

$$$$
>  <binder>
003BB172-E01-1 (VHH, Human VH single domain antibody, monovalent) VHH: EVQLVESGGGLVQPGGSLRLSCAASGFTFSNYGMHWVRQAPGKGLEWVAVISNDGNTKTYADSVKGRFTISRDNSKNMLYLQMTSLRTEDTAVYYCAQDETTTVTASYYFDYWGQGTLVTVSS

>  <koff (s⁻¹)>
0.00214

$$$$
>  <binder>
003BB172-E01-4 (VHH, Human VH single domain antibody, monovalent) VHH: EVQLVESGGGLVQPGGSLRLSCAASGFTFSNYGMHWVRQAPGKGLEWVAVISNDGNTKTYADSVKGRFTISRDNSKNTLYLQMTSLRTEDTAVYYCAQDETTTVTASYYFDYWGQGTLVTVSS

>  <koff (s⁻¹)>
0.00184

$$$$
>  <binder>
003BB172-E01-3 (VHH, Human VH single domain antibody, monovalent) VHH: EVQLVESGGGLVQPGGSLRLSCAASGFTFSNYGMHWVRQAPGKRLEWVAVISNDGNTKTYADSVKGRFTISRDNSKNMLYLQMNSLRTEDTAVYYCAQDETTTVTASYYFDYWGQGTLVTVSS

>  <koff (s⁻¹)>
0.00161

$$$$
